- TARGET: D(2) dopamine receptor (Homo sapiens) (UniProt P14416)
- Sequence (P14416 whole entry): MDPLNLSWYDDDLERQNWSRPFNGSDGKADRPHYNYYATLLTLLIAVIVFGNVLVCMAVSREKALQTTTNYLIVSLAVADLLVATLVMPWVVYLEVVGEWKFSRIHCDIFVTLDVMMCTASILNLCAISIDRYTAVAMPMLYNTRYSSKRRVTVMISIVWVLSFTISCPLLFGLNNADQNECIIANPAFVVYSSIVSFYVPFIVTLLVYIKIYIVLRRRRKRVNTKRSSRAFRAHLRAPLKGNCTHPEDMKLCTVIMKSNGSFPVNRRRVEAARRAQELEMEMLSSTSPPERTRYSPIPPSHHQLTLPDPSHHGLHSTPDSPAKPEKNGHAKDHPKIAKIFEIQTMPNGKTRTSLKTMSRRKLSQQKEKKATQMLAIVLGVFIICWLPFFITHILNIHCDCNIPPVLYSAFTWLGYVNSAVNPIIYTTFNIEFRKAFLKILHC
- REPORTED CONDITIONS: Compound concentration 10 µM; call rule not given here
The reply should be one of these categories: T = active, F = inactive

Q: Hi team, can someone confirm the assay call for CCCCc1nc(Cl)c(CO)n1Cc1ccc(-c2ccccc2-c2nnn[nH]2)cc1 ?
Ans: F

Q: Can you handle CN(C)C(=O)C(CCN1CCC(O)(c2ccc(Cl)cc2)CC1)(c1ccccc1)c1ccccc1 next?
Ans: F

Q: // query: S=C(NCCCc1c[nH]cn1)NCCCN(Cc1ccc(Cl)c(Cl)c1)c1ccc(Br)cn1
Ans: F

Q: Entry COc1ccnc(N2CCC3(CCCN(Cc4c[nH]c5ccccc45)C3=O)CC2)n1 please
Ans: F

Q: How about this compound: Cc1c(C(=O)NC2CCCCC2)sc2nc3ccc(N)cc3n12
Ans: F

Q: Now the same for CC(C)NCC(O)COc1cccc2[nH]ccc12 (stereo not given)
Ans: F

Q: Same question, NCCc1c[nH]c2ccc(C(N)=O)cc12 this time
Ans: T

Q: Then what about the compound COc1ccc(/C=C/CCCCOc2ccc(C(=O)c3cccc(C(=O)O)c3)cc2CCC(=O)O)cc1 ?
Ans: F

Q: And what about the compound Cc1nnn(-c2ccc(-c3ccc(C4(C(=O)O)CC4)cc3)cc2)c1NC(=O)O[C@H](C)c1ccccc1 ?
Ans: F

Q: Likewise for CCCCN(CC)c1nc(C)nc2c1c(C)cn2-c1c(C)cc(C)cc1C ?
Ans: F

Q: Same question for CN1CCN(c2ccc(Nc3c4ccccc4nc4ccccc34)cc2)CC1 please.
Ans: F

Q: How about this compound: Cc1nc(C#Cc2ccnc(Cl)c2)c(C)n1-c1ccc(OC(F)(F)F)cc1
Ans: F

Q: Follow-up item: Cc1nc2sccn2c(=O)c1CCN1CCC(=C(c2ccc(F)cc2)c2ccc(F)cc2)CC1
Ans: T

Q: Queued: Cc1nc(-c2ccc(-c3ccc(C(=O)N4CCc5cc6c(cc54)C4(CCN(C)CC4)CO6)cc3)c(C)c2)no1
Ans: F

Q: Another compound to check: COC(=O)C1=C(C)NC(C)=C(C(=O)OCCCN2CCC(c3ccccc3)(c3ccccc3)CC2)[C@H]1c1cccc([N+](=O)[O-])c1
Ans: T

Q: Okay, and CC(C)(C(=O)O)c1ccc(C(O)CCCN2CCC(C(O)(c3ccccc3)c3ccccc3)CC2)cc1 (stereo not given) ?
Ans: T

Q: And CN[C@@H]1CCc2[nH]c3ccc(C(N)=O)cc3c2C1 ?
Ans: T

Q: Subsequent entry: Cc1nn(C)c(C)c1-c1cccc2c1CC[C@H](N(C)C)C2
Ans: F

Q: Another compound: CN1CCC(=C2c3ccccc3CC(=O)c3sccc32)CC1
Ans: T

Q: COc1cccc(-c2c(C)n(Cc3c(F)cccc3C(F)(F)F)c(=O)n(C[C@H](NCCCC(=O)O)c3ccccc3)c2=O)c1F , same question.
Ans: F

---

- TARGET: UniProt:P18825
- Sequence (P18825 whole entry): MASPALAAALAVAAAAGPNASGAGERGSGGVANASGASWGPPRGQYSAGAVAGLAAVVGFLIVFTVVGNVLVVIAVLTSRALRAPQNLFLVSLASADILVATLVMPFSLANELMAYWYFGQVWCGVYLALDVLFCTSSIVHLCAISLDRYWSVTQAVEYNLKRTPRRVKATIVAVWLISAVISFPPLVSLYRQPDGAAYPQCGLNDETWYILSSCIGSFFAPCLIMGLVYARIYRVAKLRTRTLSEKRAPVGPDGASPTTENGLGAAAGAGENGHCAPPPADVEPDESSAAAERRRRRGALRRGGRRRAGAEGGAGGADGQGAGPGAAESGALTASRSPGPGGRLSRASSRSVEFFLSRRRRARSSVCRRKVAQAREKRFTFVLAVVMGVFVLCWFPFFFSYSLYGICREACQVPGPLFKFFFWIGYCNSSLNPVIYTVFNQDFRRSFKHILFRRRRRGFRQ
- REPORTED CONDITIONS: Compound concentration 10 µM; call rule not given here
Response enum: active, inactive

Q: Kindly provide the recorded test outcome for the following compound: CN(C(=O)Cc1ccc(Cl)c(Cl)c1)C(CN1CCCC1)c1cccc(OCC(=O)O)c1 (stereo not given)
Ans: inactive

Q: What do you have for COc1cccc([C@H](O)C2CCN(CCc3ccc(F)cc3)CC2)c1OC ?
Ans: inactive

Q: Same again, this time with CO[C@@H]1COCC[C@@H]1N[C@@H]1CC[C@@](C(=O)N2CCc3ncc(C(F)(F)F)cc3C2)(C(C)C)C1
Ans: inactive

Q: Follow-up entry: C[C@H](NC[C@H](O)CP(=O)(O)CC1CCCCC1)c1ccc(Cl)c(Cl)c1
Ans: inactive

Q: Also CC[C@@H]1CN2C(=O)N(C)c3nc(-c4ccccc4)[nH]c3C2=N1 ?
Ans: inactive

Q: What about this compound? Cc1cc(C)cc(-c2cnc3cc(Cl)c(-c4cccc(O)c4)cc3c2OCCCN)c1
Ans: active

Q: Also check N#Cc1c(N)nc(SCc2csc(-c3ccc(Cl)cc3)n2)c(C#N)c1-c1ccc(OCCO)cc1
Ans: inactive

Q: Similarly, Cc1cc(C)cc(C(=O)N(C)[C@H](Cc2ccc(-c3ccccc3)cc2)C(=O)N[C@@H](Cc2c[nH]c3ccccc23)C(=O)O)c1 ?
Ans: inactive

Q: Proceed to COc1ccccc1N1CCN(CCCCNC(=O)c2ccc3ccccc3c2)CC1
Ans: active

Q: Also check N#Cc1ccc(NC(=O)Nc2ccccc2Br)c2nn[nH]c12
Ans: inactive

Q: Now this one: CNc1nc(NCc2ccc(NS(C)(=O)=O)cc2Cl)cc(-c2ccccn2)n1
Ans: active

Q: Same thing, different compound: COc1ccc(S(=O)(=O)c2cc(OC)ccc2S(=O)(=O)c2ccc([C@H](C)NS(C)(=O)=O)cc2)cc1
Ans: inactive

Q: Query NCCc1c[nH]c2ccc(C(N)=O)cc12 next
Ans: inactive

Q: Next up: CCOC(=O)c1cc(C#N)c(N2CCC(C(=O)NS(=O)(=O)Cc3ccccc3)CC2)nc1C
Ans: inactive

Q: Similarly, CCCCCNC(=O)NS(=O)(=O)c1cc([N+](=O)[O-])ccc1NC1CCCCC1 ?
Ans: inactive

Q: Subsequent entry: CCC(=O)NCC[C@@H]1CCc2ccc3c(c21)CCO3
Ans: inactive

Q: Thanks! And NC(=O)[C@@H]1CCCN1C(=O)[C@H](Cc1c[nH]cn1)NC(=O)[C@@H]1CCC(=O)N1 ?
Ans: inactive

Q: Would you kindly repeat that for CCCn1c(=O)c2[nH]c(-c3cnn(Cc4cccc(C(F)(F)F)c4)c3)nc2n(CC)c1=O ?
Ans: inactive

Q: Field entry: Cc1ccc(O)c([C@H](CCN(C(C)C)C(C)C)c2ccccc2)c1
Ans: inactive

Q: And for O=C(Cc1ccccc1)Nc1nc2ccc(Cl)cc2c2nc(-c3ccco3)nn12 ?
Ans: inactive

---

- TARGET: 5-hydroxytryptamine receptor 1A (Homo sapiens)
- REPORTED CONDITIONS: Compound concentration 10 µM; call rule not given here
Thanks in advance; please answer with one of these: Y = active, N = inactive

Q: Please share the test call associated with CC(C)NCC(O)c1ccc(N)c(C#N)c1 (stereo not given) .
Ans: N

Q: Try this compound next: Cc1cccc(NC(=O)N[C@@H]2N=C(c3ccccc3)c3ccccc3N(C)C2=O)c1
Ans: N

Q: Another compound: C[C@@H](NCCCc1cccc(C(F)(F)F)c1)c1cccc2ccccc12
Ans: Y

Q: Similarly, Cc1csc2c(N[C@@H](C)CN3CCN(S(=O)(=O)c4ccc(Cl)c(Cl)c4)CC3)ncnc12 ?
Ans: N

Q: How about CCCCCCCCCCCCCCCCOC[C@H](COP(=O)([O-])OCC[N+](C)(C)C)OC(C)=O ?
Ans: N

---

- TARGET: Alpha-2B adrenergic receptor (Homo sapiens) (UniProt P18089)
- Sequence (whole entry): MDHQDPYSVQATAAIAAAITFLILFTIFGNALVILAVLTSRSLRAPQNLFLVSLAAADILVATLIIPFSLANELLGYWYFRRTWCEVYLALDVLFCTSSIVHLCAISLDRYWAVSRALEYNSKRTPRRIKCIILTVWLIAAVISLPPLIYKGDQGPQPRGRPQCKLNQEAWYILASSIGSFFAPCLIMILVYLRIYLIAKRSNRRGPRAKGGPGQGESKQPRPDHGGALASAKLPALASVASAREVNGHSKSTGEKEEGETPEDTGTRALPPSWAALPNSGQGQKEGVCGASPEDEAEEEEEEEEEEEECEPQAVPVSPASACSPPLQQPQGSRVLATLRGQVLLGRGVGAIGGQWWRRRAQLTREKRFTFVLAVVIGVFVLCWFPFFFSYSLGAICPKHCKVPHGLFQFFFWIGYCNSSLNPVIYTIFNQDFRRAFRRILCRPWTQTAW
- REPORTED CONDITIONS: Compound concentration 10 µM; call rule not given here
Pick from active, inactive when you respond.

Q: What did this assay record as the result for CN1C(=O)[C@@H](NC(=O)c2cc3ccccc3[nH]2)N=C(c2ccccc2)c2ccccc21 ?
Ans: inactive

Q: Now give it for Cc1cc(C)cc(-c2cnc3cc(Cl)c(-c4cccc(O)c4)cc3c2OCCCN)c1 too.
Ans: inactive

Q: And CC(C)(N)C(=O)N[C@H](COCc1ccccc1)C(=O)N1CCC2(CC1)CN(S(C)(=O)=O)c1ccccc12 ?
Ans: inactive

Q: Cool, now COc1ccc(S(=O)(=O)c2cc(OC)ccc2S(=O)(=O)c2ccc([C@H](C)NS(C)(=O)=O)cc2)cc1
Ans: inactive

Q: And what about the compound OC1(c2ccc(Cl)cc2)CCN(Cc2c[nH]c3ccccc23)CC1 ?
Ans: active

Q: And then CC(C)NCC(O)COc1ccc(CCOCC2CC2)cc1 (stereo not given) , what is it?
Ans: inactive

Q: // next record CS(=O)(=O)NC[C@H]1CC[C@H](Nc2nc3c(s2)CCSc2ccccc2-3)CC1
Ans: inactive

Q: Same question, Cc1nc(C#Cc2ccnc(Cl)c2)c(C)n1-c1ccc(OC(F)(F)F)cc1 this time
Ans: active

Q: C[C@@H](N)Cc1c[nH]cn1 , same question.
Ans: inactive

Q: // repeat for CN(C(=O)Cc1ccc(Cl)c(Cl)c1)C(CN1CCCC1)c1cccc(OCC(=O)O)c1 (stereo not given) and report
Ans: inactive

Q: Lookup O=C(Nc1ccc(Cl)cc1)Nc1cccc(-c2cccc(N3CCCC3)n2)c1
Ans: inactive

Q: What about CCOC(=O)c1c(C)[nH]c2ccc3c(c12)CN1CCc2cc(OC)ccc2C1O3 (stereo not given) ?
Ans: active

Q: # repeat for CC1(C)SSC(C)(C)[C@@H](NC(=O)[C@@H](N)Cc2ccc(O)cc2)C(=O)NCC(=O)N[C@@H](Cc2ccccc2)C(=O)N[C@H]1C(=O)O
Ans: inactive

Q: Can you check N#Cc1c(N)nc(SCC(N)=O)c(C#N)c1-c1ccc(OCC2CC2)cc1 next?
Ans: inactive

Q: Item: CCc1cc(C(C)=O)c(O)cc1OCCCCCC(C)(C)c1nn[nH]n1
Ans: inactive

Q: Param item: COc1ccccc1N1CCN(CCCCNC(=O)c2ccc3ccccc3c2)CC1
Ans: active

Q: Query Clc1cccc(COc2cncc(N3CCNCC3)n2)c1 next
Ans: inactive

Q: Then what about the compound Cc1cccc([C@H](C)c2c[nH]cn2)c1C ?
Ans: active

Q: Do the same for CN(C)S(=O)(=O)c1ccc(NC(=S)N2CCC(C(O)(c3ccccc3)c3ccccc3)CC2)cc1 please
Ans: inactive

Q: Consider next the compound CCOC(=O)c1cc(C#N)c(N2CCC(C(=O)NS(=O)(=O)Cc3ccccc3)CC2)nc1C in the same way.
Ans: inactive

Q: What do we get for CCCSc1nc(N[C@@H]2C[C@H]2c2ccc(F)c(F)c2)c2nnn([C@@H]3C[C@H](OCCO)[C@@H](O)[C@H]3O)c2n1 ?
Ans: inactive

Q: And what about the compound COc1ccc(OC(F)(F)F)cc1CN[C@H]1CCCN[C@H]1c1ccccc1 ?
Ans: inactive

Q: Same question, Cc1csc(NC(=O)c2cc(F)cc(Oc3cncnc3)c2)n1 this time
Ans: inactive

Q: Do the same for O=c1ccn([C@@H]2O[C@H](COP(=O)(O)OP(=O)(O)OP(=O)(O)O)[C@@H](O)[C@H]2O)c(=O)[nH]1 please
Ans: inactive

Q: Can you handle O=C(Cc1ccc(Cl)c(Cl)c1)N1CCCC[C@H]1CN1CCCC1 next?
Ans: inactive

Q: Proceed to CCCCN(CC)c1nc(C)nc2c1c(C)cn2-c1c(C)cc(C)cc1C
Ans: inactive

Q: Item: NC[C@H](O)c1ccc(O)c(O)c1
Ans: active

Q: Follow-up item: CC[C@@H]1CN2C(=O)N(C)c3nc(-c4ccccc4)[nH]c3C2=N1
Ans: inactive

Q: Input NC(=O)[C@@H]1CCCN1C(=O)[C@H](Cc1c[nH]cn1)NC(=O)[C@@H]1CCC(=O)N1
Ans: inactive

Q: Now this one: O=C(O)C1CN(Cc2ccc(OCc3ccc(Cl)c(Cl)c3)cc2)C1
Ans: inactive

Q: Please do the same for CCC[C@H](Oc1cc(C)c(-n2cc(C(F)(F)F)cn2)c(C)c1)c1ccc(C(=O)NCCC(=O)O)cc1 as well.
Ans: inactive

Q: Here is the next compound: C[C@@H](NCCc1ccc(O)cc1)[C@@H](O)c1ccc(O)cc1 (relative stereo)
Ans: inactive

Q: And Cc1cc(C)c(N)c(C#Cc2cccc(F)c2)n1 ?
Ans: inactive

Q: One more compound: CNc1nc(NCc2ccc(NS(C)(=O)=O)cc2Cl)cc(-c2ccccn2)n1
Ans: inactive

Q: And then Cc1cc([C@@H](C)Nc2cccc(-c3cc(C)c(C(=O)N[C@@H](C)C(=O)O)c(C)c3)c2)ccc1Cl , what is it?
Ans: inactive

Q: Further, for COc1ccc(NS(=O)(=O)c2sc3ccc(Cl)cc3c2C)cc1N1CCNCC1 ?
Ans: inactive

Q: Note, next up: COc1ccc(Br)cc1S(=O)(=O)NC(=O)/C=C/c1ccccc1Cc1ccc2ccccc2c1
Ans: inactive

Q: Queued: Cc1c(C2=CCN(C(=O)N(C)C(C)C)CC2)nnn1-c1cccnc1F
Ans: inactive

Q: Lookup O=C(O)c1n[nH]c2c1C[C@H]1C[C@@H]21
Ans: inactive

Q: Would you kindly repeat that for Cc1csc2c(N[C@@H](C)CN3CCN(S(=O)(=O)c4ccc(Cl)c(Cl)c4)CC3)ncnc12 ?
Ans: inactive
